method summary: Pharmacokinetics from brain levels after i.p. administration to rats
Assay type: in vivo, rat
study conditions: rat, ip; brain, rats, i.p. 80 mg/kg, mean; read-out: AUC
readout: AUC (ng·h/mL)
Reply with just the number (in ng·h/mL).

Problem: // fetch AUC given entry CCC(C)CCOC(=O)Nc1ccc(S(N)(=O)=O)cc1 (racemic) [MSPC (racemate)]
Result: 53000

###

method summary: Pharmacokinetics from brain levels after i.p. administration to rats
Assay type: in vivo, rat
study conditions: rat, brain, ip, 80 mg/kg, brain, rats, i.p. 80 mg/kg, mean; read-out: Vss/F
readout: Vd/F (L/kg)
Could you give me the number in L/kg? Just the number is fine.

Problem: Supply Vd/F value. Item: CC[C@H](C)CCOC(=O)Nc1ccc(S(N)(=O)=O)cc1 [(S)-MSPC]
Result: 2.2
